Measured CVS neutralizing antibody titre (RFFIT): nM IC50 values are reported for all entries that follow.
targetDesc: Rabies virus glycoprotein G, strain CVS-11 (Challenge Virus Standard-11, ATCC VR 959) (Rabies virus, strain CVS-11)
assayComment: cell-based or functional assay
Report only the number, with the unit nM understood.

Illustrative cases are given below, each with its answer.
binder	measurementUnit	experimentalResult
214-E8 15GS 213-H7 (VHH) EVQLVESGGGSVQAGGSLRLSCAASGGTFNPYVMAWFRQAPGNEREFVARIRWSGGDAYYDDSVKGRFAITRDAAKNTVHLQMNSLKPEDTAVYYCAAATYGYGSYTYGGSYDLWGQGTQVTVSSGGGGSGGGGSGGGGSEVQLVESGGGLVQAGGSLRLSCAASGRTLSSYRMGWFRQAPGKEREFISTISWNGRSTYYADSVKGRFIFSEDNAKNTVYLQMNSLKPEDTAVYYCAAALIGGYYSDVDAWSYWGPGTQVTVSS	nM	0.14
214-E8 15GS 214-E8 (VHH) EVQLVESGGGSVQAGGSLRLSCAASGGTFNPYVMAWFRQAPGNEREFVARIRWSGGDAYYDDSVKGRFAITRDAAKNTVHLQMNSLKPEDTAVYYCAAATYGYGSYTYGGSYDLWGQGTQVTVSSGGGGSGGGGSGGGGSEVQLVESGGGSVQAGGSLRLSCAASGGTFNPYVMAWFRQAPGNEREFVARIRWSGGDAYYDDSVKGRFAITRDAAKNTVHLQMNSLKPEDTAVYYCAAATYGYGSYTYGGSYDLWGQGTQVTVSS	nM	3.28

Okay, next one:
Item: 213-E6 15GS 213-H7 (VHH) EVQLVESGGGLVQAGASLRLSCAASGSTLSRYGVGWFRQAPGKERELVASVDWSGSRTYYADSVKGRFTISRDNAKNTGYLQMNSLKPDDTAVYYCAADSSVVPGIEKYDDWGLGTQVTVSSGGGGSGGGGSGGGGSEVQLVESGGGLVQAGGSLRLSCAASGRTLSSYRMGWFRQAPGKEREFISTISWNGRSTYYADSVKGRFIFSEDNAKNTVYLQMNSLKPEDTAVYYCAAALIGGYYSDVDAWSYWGPGTQVTVSS | CVS neutralizing antibody titre (RFFIT): nM IC50: 0.26
